Can you tell me TBA for the items I'm about to list?
test system: cholestasis rat induced by ANIT; assay: Efficacy on the cholestasis rat model induced by 1-naphthyl isothiocyanate (ANIT); assay type: in vivo, SD rats; design: unit not given here; details: serum, 3 mg/kg/d intragastric, 4 days, ANIT rat
Please state the value as a number alone, without comment.

The recorded TBA for entry O=C(O)c1cccc(-c2nnc(N3[C@@H]4CC[C@H]3C[C@@H](OCc3c(-c5ccccc5OC(F)(F)F)noc3C3CC3)C4)o2)c1 [Example 28] equals 66.2

The recorded TBA for entry O=C(O)c1ccc(-c2nnc(N3[C@@H]4CC[C@H]3C[C@@H](OCc3c(-c5c(Cl)cccc5Cl)noc3C3CC3)C4)o2)s1 [Example 11] equals 243.4

The recorded TBA for entry Cc1cc(C(=O)O)ccc1-c1nnc(N2[C@@H]3CC[C@H]2C[C@@H](OCc2c(-c4c(Cl)cccc4Cl)noc2C2CC2)C3)o1 [Example 14] equals 235.8

* * *

Can you tell me EC50 for the items I'm about to list?
target: FXR (Homo sapiens, UniProt Q96RI1); assay: FXR agonistic activity, luciferase assay; details: luc2P-GAL4-HEK293 cells transfected with pBIND-FXR, 24 hours
Sequence (Q96RI1 262-486 limits assumed): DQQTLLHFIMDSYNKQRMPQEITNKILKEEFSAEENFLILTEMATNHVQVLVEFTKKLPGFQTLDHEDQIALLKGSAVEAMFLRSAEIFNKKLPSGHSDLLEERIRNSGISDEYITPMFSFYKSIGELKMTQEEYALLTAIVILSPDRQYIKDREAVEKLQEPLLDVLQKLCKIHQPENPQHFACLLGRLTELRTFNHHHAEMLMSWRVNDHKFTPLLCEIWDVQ

The recorded EC50 for entry O=C(O)c1ccc(-c2nnc(N3[C@@H]4CC[C@H]3C[C@@H](OCc3c(-c5c(Cl)cccc5Cl)noc3C3CC3)C4)o2)nc1 [Example 19] equals > 500 nM

The recorded EC50 for entry Cc1cc(C(=O)O)ccc1-c1nnc(N2[C@@H]3CC[C@H]2C[C@@H](OCc2c(-c4c(Cl)cccc4Cl)noc2C2CC2)C3)o1 [Example 14] equals < 25 nM

The recorded EC50 for entry O=C(O)c1ccc(-c2nnc(N3[C@@H]4CC[C@H]3C[C@@H](OCc3c(-c5c(Cl)cccc5Cl)noc3C3CC3)C4)o2)s1 [Example 11] equals 100 to 500 nM

The recorded EC50 for entry Cc1cc(C(=O)O)ccc1-c1noc(N2[C@@H]3CC[C@H]2C[C@@H](OCc2c(-c4c(Cl)cccc4Cl)noc2C2CC2)C3)n1 [Example 5] equals < 25 nM

The recorded EC50 for entry O=C(O)c1cc(-c2nnc(N3[C@@H]4CC[C@H]3C[C@@H](OCc3c(-c5ccccc5OC(F)(F)F)noc3C3CC3)C4)o2)cs1 [Example 34] equals > 500 nM

The recorded EC50 for entry Cc1cc(C(=O)O)ccc1-c1nnc(N2[C@@H]3CC[C@H]2C[C@@H](OCc2c(-c4ccccc4OC(F)(F)F)noc2C2CC2)C3)o1 [Example 27] equals < 25 nM

The recorded EC50 for entry O=C(O)c1cccc(-c2nnc(N3[C@@H]4CC[C@H]3C[C@@H](OCc3c(-c5ccccc5OC(F)(F)F)noc3C3CC3)C4)o2)n1 [Example 24] equals > 500 nM

The recorded EC50 for entry O=C(O)c1ccc(-c2nnc(N3[C@@H]4CC[C@H]3C[C@@H](OCc3c(-c5ccccc5OC(F)(F)F)noc3C3CC3)C4)o2)cc1 [Example 22] equals < 25 nM

The recorded EC50 for entry O=C(O)c1csc(-c2nnc(N3[C@@H]4CC[C@H]3C[C@@H](OCc3c(-c5ccccc5OC(F)(F)F)noc3C3CC3)C4)o2)c1 [Example 33] equals 100 to 500 nM

The recorded EC50 for entry COc1cc(-c2nnc(N3[C@@H]4CC[C@H]3C[C@@H](OCc3c(-c5c(Cl)cccc5Cl)noc3C3CC3)C4)o2)ccc1C(=O)O [Example 13] equals < 25 nM

The recorded EC50 for entry O=C(O)c1ccc(-c2nnc(N3[C@@H]4CC[C@H]3C[C@@H](OCc3c(-c5ccccc5OC(F)(F)F)noc3C3CC3)C4)o2)c(F)c1 [Example 29] equals 100 to 500 nM

The recorded EC50 for entry Cc1cc(-c2noc(N3[C@@H]4CC[C@H]3C[C@@H](OCc3c(-c5c(Cl)cccc5Cl)noc3C3CC3)C4)n2)ccc1C(=O)O [Example 7] equals < 25 nM

The recorded EC50 for entry O=C(O)c1ccc(-c2noc(N3[C@@H]4CC[C@H]3C[C@@H](OCc3c(-c5c(Cl)cccc5Cl)noc3C3CC3)C4)n2)cc1 [Example 1] equals < 25 nM

The recorded EC50 for entry O=C(O)c1ccc(-c2noc(N3[C@@H]4CC[C@H]3C[C@@H](OCc3c(-c5c(Cl)cccc5Cl)noc3C3CC3)C4)n2)s1 [Example 4] equals < 25 nM

The recorded EC50 for entry O=C(O)c1ccc(-c2nnc(N3[C@@H]4CC[C@H]3C[C@@H](OCc3c(-c5c(Cl)cccc5Cl)noc3C3CC3)C4)o2)cc1 [Example 8] equals < 25 nM

The recorded EC50 for entry O=C(O)c1ccc(-c2nnc(N3[C@@H]4CC[C@H]3C[C@@H](OCc3c(-c5ccccc5OC(F)(F)F)noc3C3CC3)C4)o2)nc1 [Example 32] equals > 500 nM

The recorded EC50 for entry O=C(O)c1cccc(-c2nnc(N3[C@@H]4CC[C@H]3C[C@@H](OCc3c(-c5c(Cl)cccc5Cl)noc3C3CC3)C4)o2)n1 [Example 10] equals 100 to 500 nM

The recorded EC50 for entry O=C(O)c1cccc(-c2noc(N3[C@@H]4CC[C@H]3C[C@@H](OCc3c(-c5c(Cl)cccc5Cl)noc3C3CC3)C4)n2)n1 [Example 3] equals < 25 nM

The recorded EC50 for entry O=C(O)c1cc(-c2nnc(N3[C@@H]4CC[C@H]3C[C@@H](OCc3c(-c5c(Cl)cccc5Cl)noc3C3CC3)C4)o2)cs1 [Example 21] equals 100 to 500 nM

The recorded EC50 for entry O=C(O)c1ccc(-c2nnc(N3[C@@H]4CC[C@H]3C[C@@H](OCc3c(-c5ccccc5OC(F)(F)F)noc3C3CC3)C4)o2)cc1Cl [Example 23] equals 100 to 500 nM

The recorded EC50 for entry O=C(O)c1ccc(-c2nnc(N3[C@@H]4CC[C@H]3C[C@@H](OCc3c(-c5ccccc5OC(F)(F)F)noc3C3CC3)C4)o2)s1 [Example 25] equals 100 to 500 nM

The recorded EC50 for entry O=C(O)c1ccc(-c2nnc(N3[C@@H]4CC[C@H]3C[C@@H](OCc3c(-c5ccccc5OC(F)(F)F)noc3C3CC3)C4)o2)cc1F [Example 26] equals 100 to 500 nM

The recorded EC50 for entry O=C(O)c1ccc(-c2nnc(N3[C@@H]4CC[C@H]3C[C@@H](OCc3c(-c5c(Cl)cccc5Cl)noc3C3CC3)C4)o2)cn1 [Example 18] equals 100 to 500 nM

The recorded EC50 for entry O=C(O)c1csc(-c2nnc(N3[C@@H]4CC[C@H]3C[C@@H](OCc3c(-c5c(Cl)cccc5Cl)noc3C3CC3)C4)o2)c1 [Example 20] equals 50 to 100 nM

The recorded EC50 for entry O=C(O)c1ccc(-c2nnc(N3[C@@H]4CC[C@H]3C[C@@H](OCc3c(-c5ccccc5OC(F)(F)F)noc3C3CC3)C4)o2)cn1 [Example 31] equals 100 to 500 nM

* * *

test system: cholestasis rat induced by ANIT; test: Efficacy on the cholestasis rat model induced by 1-naphthyl isothiocyanate (ANIT); format: in vivo, SD rats; parameters: unit not given here; details: serum, 3 mg/kg/d intragastric, 4 days, ANIT rat
Response field label takes condition met when TBA is strictly below 70 and condition not met in all other cases.

Find out if reported TBA for O=C(O)c1ccc(-c2nnc(N3[C@@H]4CC[C@H]3C[C@@H](OCc3c(-c5ccccc5OC(F)(F)F)noc3C3CC3)C4)o2)cc1 [Example 22] is less than 70 condition not met

Find out if reported TBA for O=C(O)c1ccc(-c2nnc(N3[C@@H]4CC[C@H]3C[C@@H](OCc3c(-c5c(Cl)cccc5Cl)noc3C3CC3)C4)o2)cc1 [Example 8] is less than 70 condition not met

Find out if reported TBA for O=C(O)c1csc(-c2nnc(N3[C@@H]4CC[C@H]3C[C@@H](OCc3c(-c5c(Cl)cccc5Cl)noc3C3CC3)C4)o2)c1 [Example 20] is less than 70 condition not met

Find out if reported TBA for O=C(O)c1ccc(-c2nnc(N3[C@@H]4CC[C@H]3C[C@@H](OCc3c(-c5ccccc5OC(F)(F)F)noc3C3CC3)C4)o2)c(F)c1 [Example 29] is less than 70 condition met

Find out if reported TBA for O=C(O)c1ccc(-c2nnc(N3[C@@H]4CC[C@H]3C[C@@H](OCc3c(-c5ccccc5OC(F)(F)F)noc3C3CC3)C4)o2)cc1F [Example 26] is less than 70 condition met

* * *

experiment: Plasma and liver concentration of the compound after 4 days of administration in the cholestasis rat induced by ANIT; assay type: in vivo, SD rats; details: SD, liver/plasma, oral, 3 mg/kg/day, 4 h, 3 mg/kg/d
measured.quantity: Kp at 4 h
Please state the value as a number alone, without comment.

The recorded Kp at 4 h for entry `O=C(O)c1ccc(-c2nnc(N3[C@@H]4CC[C@H]3C[C@@H](OCc3c(-c5ccccc5OC(F)(F)F)noc3C3CC3)C4)o2)cc1` equals 14.4

The recorded Kp at 4 h for entry `O=C(O)c1ccc(-c2nnc(N3[C@@H]4CC[C@H]3C[C@@H](OCc3c(-c5c(Cl)cccc5Cl)noc3C3CC3)C4)o2)cc1` equals 61

The recorded Kp at 4 h for entry `Cc1cc(C(=O)O)ccc1-c1nnc(N2[C@@H]3CC[C@H]2C[C@@H](OCc2c(-c4c(Cl)cccc4Cl)noc2C2CC2)C3)o1` equals 7.1

The recorded Kp at 4 h for entry `O=C(O)c1ccc(-c2nnc(N3[C@@H]4CC[C@H]3C[C@@H](OCc3c(-c5c(Cl)cccc5Cl)noc3C3CC3)C4)o2)s1` equals 6.2
